B1: tRNA (parent)
chain: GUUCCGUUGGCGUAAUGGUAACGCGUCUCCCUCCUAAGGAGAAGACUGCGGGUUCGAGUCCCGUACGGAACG

- Variants of: B1
- method: yeast fitness, log relative to wild type (ln ratio); higher = fitter; tRNA-Arg(CCU), competitive growth, 37 C, 1 M NaCl
property.label: yeast fitness (ln)
Would you mind answering with just the numeric figure?

Answered cases to consult:
{"columns": ["variant.annotation", "reported.result"],
 "data": [
  ["U2C G6U C27U C71U", -0.147],
  ["U2G G6A C46U A69G C71U", -0.124]
]}

--- query ---
input: Reported yeast fitness (ln) for G1A A43C C46U A69G C71U : what is it?
output: -0.0151
